molecular target: PDL1, Q9NZQ7
Sequence (Q9NZQ7 whole entry): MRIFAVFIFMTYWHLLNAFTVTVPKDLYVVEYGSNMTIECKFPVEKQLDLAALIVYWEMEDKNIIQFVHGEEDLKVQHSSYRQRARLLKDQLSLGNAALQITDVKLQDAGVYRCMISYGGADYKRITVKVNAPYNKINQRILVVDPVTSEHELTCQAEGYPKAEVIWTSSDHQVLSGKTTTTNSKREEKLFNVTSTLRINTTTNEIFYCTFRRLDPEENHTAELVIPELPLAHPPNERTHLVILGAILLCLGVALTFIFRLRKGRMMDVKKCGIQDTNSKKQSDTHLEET
recordedEndpoint: binding in a display sort

binder: d8r1_design_ppi_1220_dldesign_0_cycle1_af2pred (protein) AEERAEELAKEAFKLLSEAAKAAATATTEEQVKKGEELAEKAKKLAEELLKEDPSKKGLSEGIKRAAEKVKKAAEEKKKEL
reading: not found (inactive)
--
binder: d8r1_design_ppi_479_dldesign_0_cycle0_af2pred (protein) EELAKEARELAKRGIEDPEKAPEAGRKIAELAAKAVAEGDSEAAAEAVAELTRLHKANPEAGREALILMAQKIAKVAREK
reading: not found (inactive)
--
binder: d8r1_design_ppi_456_dldesign_0_cycle1_af2pred (protein) SAQAAAAEKLRALADAIAAASPAYQPAANALRAAAVVAEKSGNGASALALLDAAIAAAAKVPGGAEWAAAIRAAAAEVRAAFA
reading: not found (inactive)
